# measured on: T1, 4H780-AA
# T1 chain: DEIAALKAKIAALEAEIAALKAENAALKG
# measurement notes: two-hybrid library CCmax;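 also: natural log of median RNA to DNA barcode read ratio; higher means stronger binding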
# experimental setup: mean of both orientations
Listing of recorded interaction score by entry.

binder: DKNAALKAEIAALKAEIAALEAKNAALEG [4H3655-AA]
interaction score: -1.83
--
binder: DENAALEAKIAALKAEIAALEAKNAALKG [4H1352-AA]
interaction score: -1.6
--
binder: DEIAALEAKIAALKAENAALEAKIAALKG [4H342-AA]
interaction score: -1.58

Hey, just so you know, these numbers are from paper PMC10397247.
